Source of measurements: PubChem BioAssay AID1918938

System: 556581-035-R-J1-PDC complex spheroid viability
Assay: Anticancer human tumor 556581-035-R-J1-PDC patient-derived ovarian carcinoma cell line growth inhibition
Conditions: second compound 10 µM; first compound 0.000949 µM; hits give low values
Text: Multicellular complex tumor spheroid response to LSD1 Inhibitor Iadademstat in combination with a variety of drugs and investigational agents in selected tumor cell lines The current study was undertaken to assess response to LSD1 inhibitors in combination with standard-of-care drugs and investigational agents in solid tumor complex spheroid models as well as in the K-562 leukemia. […] Compounds. […] If the clinical Cmax for an agent had not been determined, the highest concentration tested was 10 microM. […]
// classify: if (viability, T/C < 60%) t else f

{"molecule": "CCc1c2c(nc3ccc(O)cc13)-c1cc3c(c(=O)n1C2)COC(=O)[C@]3(O)CC + NC1CC1c1ccc(-c2cccc(O)c2)cc1", "label_value": "t"}
{"molecule": "Nc1ncn(C2CC(O)C(CO)S2)c(=O)n1 (stereo unspecified) + NC1CC1c1ccc(-c2cccc(O)c2)cc1", "label_value": "f"}
{"molecule": "Nc1ccn(C2OC(CO)C(O)C2(F)F)c(=O)n1 (stereo unspecified) + NC1CC1c1ccc(-c2cccc(O)c2)cc1", "label_value": "f"}
{"molecule": "Nc1ncn(C2CC(O)C(CO)S2)c(=O)n1 (stereo unspecified) + NC1CCC(NC2CC2c2ccccc2)CC1", "label_value": "f"}
{"molecule": "CCc1c2c(nc3ccc(O)cc13)-c1cc3c(c(=O)n1C2)COC(=O)[C@]3(O)CC + NC1CCC(NC2CC2c2ccccc2)CC1", "label_value": "t"}

====

test system: 556581-035-R-J1-PDC complex spheroid viability; test: Anticancer human tumor 556581-035-R-J1-PDC cell line growth inhibition; settings: second compound 0.316 µM; first compound 10 µM; hits give low values;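 note: spheroids exposed to agents for seven days; 100% = DMSO vehicle control wells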
quantity_kind: viability, T/C (%)

{"molecule": "CC1COCCN1c1cc(C2(S(C)(=N)=O)CC2)nc(-c2ccnc3[nH]ccc23)n1 (stereo unspecified) + NC1CC1c1ccc(-c2cccc(O)c2)cc1", "quantity_kind": "viability, T/C", "unit": "%", "value_measured": 46.3}
{"molecule": "CC1(C)CCC(CN2CCN(c3ccc(C(=O)NS(=O)(=O)c4ccc(NCC5CCOCC5)c([N+](=O)[O-])c4)c(Oc4cnc5[nH]ccc5c4)c3)CC2)=C(c2ccc(Cl)cc2)C1 + NC1CC1c1ccc(-c2cccc(O)c2)cc1", "quantity_kind": "viability, T/C", "unit": "%", "value_measured": 4.26}
{"molecule": "CC1COCCN1c1cc(C2(S(C)(=N)=O)CC2)nc(-c2ccnc3[nH]ccc23)n1 (stereo unspecified) + NC1CCC(NC2CC2c2ccccc2)CC1", "quantity_kind": "viability, T/C", "unit": "%", "value_measured": 53.9}
{"molecule": "COc1ccc([C@@H](O)c2cc(-c3ncnc4cc(N5CCOCC5)ccc34)c(F)cc2Cl)nn1 + NC1CC1c1ccc(-c2cccc(O)c2)cc1", "quantity_kind": "viability, T/C", "unit": "%", "value_measured": 27.3}
{"molecule": "O=C(c1cc(Cc2n[nH]c(=O)c3ccccc23)ccc1F)N1CCN(C(=O)C2CC2)CC1 + NC1CC1c1ccc(-c2cccc(O)c2)cc1", "quantity_kind": "viability, T/C", "unit": "%", "value_measured": 67.5}
{"molecule": "CC(C)c1c(-c2ccccc2)nc2c(C#N)c[nH]n2c1=O + NC1CC1c1ccc(-c2cccc(O)c2)cc1", "quantity_kind": "viability, T/C", "unit": "%", "value_measured": 79.9}
